Source: ChEMBL document CHEMBL5104227

- protocol_text: Octanol-water partition coefficient, logP of the compound at pH 7.4 incubated for 10 mins by shake-flask method
- Format: physicochemical
# logD at 10 min listing for each entry below
Answer using only a numeral; do not append any unit.

Field logD at 10 min (entry O=C(N[C@@H](Cc1ccc(O)c([125I])c1)C(=O)O)c1ccc(-c2c3nc(c(-c4ccccc4)c4ccc([nH]4)c(-c4ccccc4)c4nc(c(-c5ccccc5)c5ccc2[nH]5)C=C4)C=C3)cc1 ) reads 2.55

Field logD at 10 min (entry Oc1ccc(-c2c3nc(c(-c4ccccc4)c4ccc([nH]4)c(-c4ccccc4)c4nc(c(-c5ccccc5)c5ccc2[nH]5)C=C4)C=C3)cc1[125I] ) reads 2.96
